target: D(1A) dopamine receptor (Rattus norvegicus); experiment: In vitro binding affinity towards Dopamine receptor D1
Sequence (P18901 whole entry): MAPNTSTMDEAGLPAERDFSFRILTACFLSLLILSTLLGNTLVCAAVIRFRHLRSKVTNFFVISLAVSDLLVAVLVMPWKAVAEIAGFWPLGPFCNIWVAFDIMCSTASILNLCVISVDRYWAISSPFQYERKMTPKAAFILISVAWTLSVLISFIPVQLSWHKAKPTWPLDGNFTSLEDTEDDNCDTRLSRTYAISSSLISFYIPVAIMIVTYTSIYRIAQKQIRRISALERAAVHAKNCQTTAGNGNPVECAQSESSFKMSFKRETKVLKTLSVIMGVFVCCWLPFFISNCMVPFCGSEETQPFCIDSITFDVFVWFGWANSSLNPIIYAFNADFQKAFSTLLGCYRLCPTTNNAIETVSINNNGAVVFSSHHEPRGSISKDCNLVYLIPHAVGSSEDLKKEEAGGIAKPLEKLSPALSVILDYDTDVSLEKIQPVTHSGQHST
observation-type: pKi
# pKi is unitless: minus log10 of the molar concentration; print number only

Task: Bench note: what pKi did CCCN(CCC)C1CCc2c(ccc(O)c2O)C1 (racemic) show?
Output: 6.77
